Cited source: paper PMC3890260

- assayedSystem: V. cholerae CqsS receptor (Vibrio cholerae serotype O1, UniProt Q9KM66)
- Sequence (Q9KM66 whole entry, looked up): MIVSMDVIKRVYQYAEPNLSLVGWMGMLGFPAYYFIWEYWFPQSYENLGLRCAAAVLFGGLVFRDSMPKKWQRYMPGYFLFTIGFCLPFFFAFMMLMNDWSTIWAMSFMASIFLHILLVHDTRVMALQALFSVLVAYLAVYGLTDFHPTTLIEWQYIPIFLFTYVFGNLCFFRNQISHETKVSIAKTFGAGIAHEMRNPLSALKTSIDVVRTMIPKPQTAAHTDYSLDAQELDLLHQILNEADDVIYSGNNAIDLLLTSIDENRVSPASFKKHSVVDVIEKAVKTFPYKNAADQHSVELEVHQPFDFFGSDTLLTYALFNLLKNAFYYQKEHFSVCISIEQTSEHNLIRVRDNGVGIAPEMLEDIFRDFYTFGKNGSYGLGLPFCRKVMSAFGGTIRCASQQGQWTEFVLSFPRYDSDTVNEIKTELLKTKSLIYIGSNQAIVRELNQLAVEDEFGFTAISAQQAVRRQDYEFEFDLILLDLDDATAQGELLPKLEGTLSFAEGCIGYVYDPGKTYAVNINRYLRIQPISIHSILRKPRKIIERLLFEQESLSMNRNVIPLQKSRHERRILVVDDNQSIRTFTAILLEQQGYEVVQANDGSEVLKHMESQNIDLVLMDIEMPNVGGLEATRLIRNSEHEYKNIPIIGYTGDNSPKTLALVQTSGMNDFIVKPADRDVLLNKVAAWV
- measurementProtocol: CqsS agonist bioassay
- Assay type: cell-based
- testParameters: CqsS agonist bioassay; mean of triplicate analyses
pEC50: −log10 of the molar value.
observationType: pEC50

# recordSmiles, numericValue
rows = [
    ("C/C=C(\\N)C(=O)CCCCCCCCC", 8.39),
]
